Attribution: patent US12187709B2

molecular target: Human Cbl-b (residues 40-426) (Homo sapiens (Human))
Sequence (Q13191 40-426): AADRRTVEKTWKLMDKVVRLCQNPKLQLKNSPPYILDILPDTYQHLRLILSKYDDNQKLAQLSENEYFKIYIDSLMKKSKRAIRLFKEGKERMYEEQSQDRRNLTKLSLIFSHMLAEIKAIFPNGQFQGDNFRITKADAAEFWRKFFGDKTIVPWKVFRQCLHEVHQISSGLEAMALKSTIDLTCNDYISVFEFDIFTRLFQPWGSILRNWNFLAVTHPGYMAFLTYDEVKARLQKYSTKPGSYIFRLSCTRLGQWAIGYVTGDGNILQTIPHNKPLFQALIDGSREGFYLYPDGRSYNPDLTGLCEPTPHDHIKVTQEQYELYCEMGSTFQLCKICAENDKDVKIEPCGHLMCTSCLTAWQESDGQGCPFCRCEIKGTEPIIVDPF
measurement.kind: Kd (nM)
Respond with the bare value in nM.

See these solved cases before continuing.
CCO[C@H]1C[C@@](c2cccc(N3Cc4c(cc(CNC5(C)CCC5)cc4C(F)(F)F)C3=O)c2)(c2nncn2C)C1; 5.8
COC1CC2(C1)CC(c1cccc(N3Cc4c(cc(CNC5(C)CCC5)cc4C(F)(F)F)C3=O)c1)(c1nncn1C)C2 (centres unmarked); 110
CC(C)[C@H]1CN(C)CCN1Cc1cc2c(c(C(F)(F)F)c1)CN(c1cccc([C@]3(c4nncn4C)C[C@H](C#N)C3)c1)C2=O (single isomer, unassigned); 3.7
Cn1cnnc1[C@]1(c2cc(NC3CC(F)(F)C3)nc(N3Cc4c(cc(CNC5(C)CCC5)cc4C(F)(F)F)C3=O)c2)C[C@H](C)C1; 2.2

// query Tell me its Kd on Human Cbl-b (residues 40-426) (Homo sapiens (Human)): Cn1cnnc1[C@]1(c2cc(OC3CCCC3)cc(N3Cc4c(cc(CNC5(C)CCC5)cc4C(F)(F)F)C3=O)c2)C[C@H](C)C1
// result 13

// query Tell me its Kd on Human Cbl-b (residues 40-426) (Homo sapiens (Human)): Cn1cnnc1C(c1cccc(N2Cc3c(cc(CNC4(C)CCC4)cc3C(F)(F)F)C2=O)c1)[C@H]1C[C@@H](CC#N)C1 (single isomer, unassigned)
// result 0.85

// query Tell me its Kd on Human Cbl-b (residues 40-426) (Homo sapiens (Human)): CO[C@H]1C[C@](c2cc(OC(C)C)cc(N3Cc4c(cc(CNC5(C)CCC5)cc4C(F)(F)F)C3=O)c2)(c2nncn2C)C1
// result 9.3

// query Tell me its Kd on Human Cbl-b (residues 40-426) (Homo sapiens (Human)): C[C@H](CC#N)Nc1cc(C2(c3nncn3C)CC3(COC3)C2)cc(N2Cc3c(cc(CNC4(C)CCC4)cc3C(F)(F)F)C2=O)n1
// result 0.3

// query Tell me its Kd on Human Cbl-b (residues 40-426) (Homo sapiens (Human)): CCOc1cc(N2Cc3c(cc(CNC4(C)CCC4)cc3C(F)(F)F)C2=O)cc([C@]2(c3nncn3C)C[C@H](C)C2)c1
// result 0.3
